Tested on: SR
assay_notes: NCI tumour cell line growth inhibition, 48 h
Calls of active or inactive are those of the source. Rule as the data show it: active = GI50 up to about 1.1 µM and inactive = higher.
Below, each entry is listed alongside its reported GI50.

molecule: Cc1ccccc1N(CCC#N)C1=NN(C(=O)CC(=O)Nc2ccc(Cl)cc2)C(c2ccccc2)C1 (stereo unspecified)
GI50: > 100 µM (inactive)

molecule: CSc1nc(=O)cnn1C
GI50: > 100 µM (inactive)

molecule: Nc1c(C(=O)c2ccc(Cl)c(Cl)c2)[nH]c(NCc2ccccc2)c1C(=S)Nc1ccccc1
GI50: 3.1 µM (inactive)

molecule: Cc1c(C(=O)Nc2ccc(Cl)cc2)nc(N)nc1-c1cccc(Cl)c1
GI50: > 100 µM (inactive)

molecule: CCOP(=O)(OCC)/C(C#N)=C/c1cnc(C)[nH]1
GI50: > 100 µM (inactive)

molecule: O=C(NCC#CCO)C(F)(F)F
GI50: > 100 µM (inactive)
